Listed here: items and their measured concentration at 1 h.
experiment: Mouse blood levels after intramuscular administration; assay type: in vivo; conditions: mouse, blood, im, 10 mg/kg, Example 3; IM 10 mg./kg.; 1 hr; average of 3 experiments; read-out: Blood Levels
readout_kind: concentration at 1 h (ng/mL)

molecule	scale_unit	value_measured
O=C(O)C1=C(CSc2cnn[nH]2)CS[C@@H]2[C@H](N3C(=O)[C@@H](c4ccc(O)cc4)NC3c3ccccc3S(=O)(=O)O)C(=O)N12 (some centres unmarked) [BL-S1055]	ng/mL	7600
N[C@@H](C(=O)N[C@@H]1C(=O)N2C(C(=O)O)=C(CSc3cnn[nH]3)CS[C@H]12)c1ccc(O)cc1 [BL-S640, reference compound]	ng/mL	8000
